Target: T1, Eotaxin 3 (CCL26) (UniProt Q9Y258 24-94)
T1 construct: Bought chemokine
T1 sequence (looked up): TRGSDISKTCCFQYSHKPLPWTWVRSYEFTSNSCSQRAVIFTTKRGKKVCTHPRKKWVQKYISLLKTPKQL
Test: micro-array, phage-presented peptide on printed CK
Ends that are not written are not given here.
MEASURED_METRIC: binding result

Consider the following illustrative entries.
binder="WVFGNAACK [Phage-Presented Peptide 8.7 (Ph-p8.7)]" value_measured=binds
binder="WVFGHGMCK [Phage-Presented Peptide 25 (Ph-p25)]" value_measured=binds
binder="TKCQKE [Phage-Presented Peptide 20 (Ph-p20)]" value_measured=binds
binder="WVFGSGLCK [Phage-Presented Peptide 15 (Ph-p15)]" value_measured=binds
binder="HYTCSSHFP (also: displayed on M13 phage, fusion not given here) [Phage-Presented Peptide 17 (Ph-p17)]" value_measured=binds
binder="SYYDDVGL [Phage-Presented Peptide 27 (Ph-p27)]" value_measured=binds
binder="WVFG [Phage-Presented Peptide 8.4 (Ph-p8.4)]" value_measured=binds

Next binder, please.
Fill in the blank: the reported binding result of WVFGAAACK [Phage-Presented Peptide 8.6 (Ph-p8.6)] is ____.
binds

Provenance of the data: patent US20100227824A1
